Origin of the recorded values: ChEMBL document CHEMBL1138458

- test_system: Fructose-1,6-bisphosphatase 1 (Rattus norvegicus, UniProt P19112)
- Sequence (P19112 whole entry): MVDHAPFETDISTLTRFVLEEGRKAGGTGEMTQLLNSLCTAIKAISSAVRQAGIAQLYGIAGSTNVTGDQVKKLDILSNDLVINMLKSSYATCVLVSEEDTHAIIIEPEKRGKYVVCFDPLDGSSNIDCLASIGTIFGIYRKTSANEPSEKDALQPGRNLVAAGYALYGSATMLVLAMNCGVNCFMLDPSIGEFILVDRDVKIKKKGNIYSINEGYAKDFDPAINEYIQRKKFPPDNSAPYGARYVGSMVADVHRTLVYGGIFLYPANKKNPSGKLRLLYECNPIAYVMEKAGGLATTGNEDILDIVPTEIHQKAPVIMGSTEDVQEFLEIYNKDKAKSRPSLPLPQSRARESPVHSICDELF
pIC50: −log10 of the molar value.
Documented pIC50 across a set of molecules

# annotated cases, reported pIC50 shown
[
  {
    "test_smiles": "Nc1ncnc2c1nc(-c1ccc(P(=O)(O)O)o1)n2CCC1CCCCC1",
    "test_system": "Fructose-1,6-bisphosphatase 1 (Rattus norvegicus, UniProt P19112)",
    "pIC50": 4.70
  },
  {
    "test_smiles": "Nc1ncnc2c1nc(-c1ccc(P(=O)(O)O)o1)n2C1CCCC1",
    "test_system": "Fructose-1,6-bisphosphatase 1 (Rattus norvegicus, UniProt P19112)",
    "pIC50": "< 4.70"
  },
  {
    "test_smiles": "CSc1nc(N)c2nc(-c3ccc(P(=O)(O)O)o3)n(CC(C)C)c2n1",
    "test_system": "Fructose-1,6-bisphosphatase 1 (Rattus norvegicus, UniProt P19112)",
    "pIC50": "< 4.70"
  }
]

Then this molecule:
Item CC(C)(CCl)Cn1c(-c2ccc(P(=O)(O)O)o2)nc2c(N)ncnc21 has what recorded pIC50?
< 5.70

* * *

- test_system: Fructose-1,6-bisphosphatase 1 (Homo sapiens, UniProt P09467)
pIC50: −log10 of the molar value.
Values of pIC50 greater than or equal to 5 map to 1; values below map to 0.

Before answering, review these 5 worked examples.
[
  {
    "test_smiles": "Nc1ncnc2c1nc(-c1ccc(P(=O)(O)O)s1)n2CCc1ccccc1",
    "category_label": 0
  },
  {
    "test_smiles": "Nc1ncnc2c1nc(NCCP(=O)(O)O)n2CCc1ccccc1",
    "category_label": 0
  },
  {
    "test_smiles": "CSc1nc(N)c2nc(-c3ccc(P(=O)(O)O)o3)n(CC(C)(C)C)c2n1",
    "category_label": 1
  },
  {
    "test_smiles": "Nc1ncnc2c1nc(-c1ccc(P(=O)(O)O)o1)n2C1CC1",
    "category_label": 1
  },
  {
    "test_smiles": "CC(C)Cn1c(-c2ccc(P(=O)(O)O)o2)nc2c(N)ncnc21",
    "category_label": 1
  }
]

Hi team, for O=P(O)(O)c1ccc(-c2nc3c(Cl)ncnc3n2CCc2ccccc2)o1 , is the recorded pIC50 at or above 5?
0

* * *

- Test system: Hepatocyte
- test_name: Inhibition of glucose production in rat primary hepatocytes treated for 15 to 30 mins prior to gluconeogenic substrate dihydroxyacetone addition
- Assay type: functional, cell-based
reported_property: EC50 (µM)
The figure you give is taken to be in µM; do not add the unit.

Previously resolved entries follow.
[
  {
    "compound": "CC(C)(CO)Cn1c(-c2ccc(P(=O)(O)O)o2)nc2c(N)ncnc21",
    "reported_property": "EC50",
    "unit_abbrev": "µM",
    "endpoint_result": 50
  },
  {
    "compound": "CC(C)(CCl)Cn1c(-c2ccc(P(=O)(O)O)o2)nc2c(N)ncnc21",
    "reported_property": "EC50",
    "unit_abbrev": "µM",
    "endpoint_result": 7.5
  },
  {
    "compound": "CC(C)Cn1c(-c2ccc(P(=O)(O)O)o2)nc2c(N)ncnc21",
    "reported_property": "EC50",
    "unit_abbrev": "µM",
    "endpoint_result": 18
  },
  {
    "compound": "Nc1ncnc2c1nc(-c1ccc(P(=O)(O)O)o1)n2CCC1CCCCC1",
    "reported_property": "EC50",
    "unit_abbrev": "µM",
    "endpoint_result": 90
  },
  {
    "compound": "COc1cc2c(c(OC)c1OC)C(=O)OC2OP(=O)(OC1OC(=O)c2c1cc(OC)c(OC)c2OC)c1ccc(-c2nc3c(N)ncnc3n2CCc2ccccc2)o1 (configuration not stated)",
    "reported_property": "EC50",
    "unit_abbrev": "µM",
    "endpoint_result": 75
  },
  {
    "compound": "CSc1nc(N)c2nc(-c3ccc(P(=O)(O)O)o3)n(CC(C)(C)C)c2n1",
    "reported_property": "EC50",
    "unit_abbrev": "µM",
    "endpoint_result": 8.5
  },
  {
    "compound": "CC(C)C(=O)OCOP(=O)(OCOC(=O)C(C)C)c1ccc(-c2nc3c(N)ncnc3n2CCc2ccccc2)o1",
    "reported_property": "EC50",
    "unit_abbrev": "µM",
    "endpoint_result": 25
  },
  {
    "compound": "CC(=O)OC1CCCC(OP(=O)(OC2CCCC(OC(C)=O)C2)c2ccc(-c3nc4c(N)ncnc4n3CCc3ccccc3)o2)C1 (configuration not stated)",
    "reported_property": "EC50",
    "unit_abbrev": "µM",
    "endpoint_result": 400
  }
]

Kindly consider the entry below.
If you can, please state the reported EC50 value of Nc1ncnc2c1nc(-c1ccc(P(=O)(O)O)o1)n2C1CCCC1 .
24

* * *

- test_system: Fructose-1,6-bisphosphatase 1 (Homo sapiens, UniProt P09467)
pIC50: −log10 of the molar value.
reported_property: pIC50

[
  {
    "test_smiles": "Nc1ncnc2c1nc(-c1ccc(C(=O)O)o1)n2CCc1ccccc1",
    "pIC50": "< 4.00"
  },
  {
    "test_smiles": "Nc1ncnc2c1nc(CNCP(=O)(O)O)n2CCc1ccccc1",
    "pIC50": "< 3.30"
  },
  {
    "test_smiles": "Cn1c(-c2nc3c(N)ncnc3n2CC(C)(C)C)ccc1P(=O)(O)O",
    "pIC50": "< 5.00"
  }
]

Could you now look at the following compound, please?
Recorded pIC50 for Nc1ncnc2c1nc(NCCCP(=O)(O)O)n2[C@@H]1O[C@H](CO)[C@@H](O)[C@H]1O with Fructose-1,6-bisphosphatase 1 (Homo sapiens, UniProt P09467), please?
< 4.00

* * *

Sequence of the target: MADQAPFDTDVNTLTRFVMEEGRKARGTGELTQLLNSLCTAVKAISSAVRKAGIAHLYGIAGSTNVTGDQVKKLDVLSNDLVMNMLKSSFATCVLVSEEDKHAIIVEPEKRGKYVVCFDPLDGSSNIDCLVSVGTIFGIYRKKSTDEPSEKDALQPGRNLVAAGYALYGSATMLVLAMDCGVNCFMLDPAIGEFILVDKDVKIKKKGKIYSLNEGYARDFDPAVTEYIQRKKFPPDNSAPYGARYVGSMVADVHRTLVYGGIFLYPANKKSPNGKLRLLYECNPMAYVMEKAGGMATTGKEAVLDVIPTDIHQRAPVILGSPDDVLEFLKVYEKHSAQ
reported_property: IC50 (µM)
Report as a plain number; the unit µM is understood.

[
  {
    "test_smiles": "Nc1ncnc2c1nc(CCOP(=O)(O)O)n2CCc1ccccc1",
    "unit_abbrev": "µM",
    "endpoint_result": 40
  }
]

Okay, now this compound:
I am curious: what IC50 value has been reported for Nc1ncnc2c1nc(-c1ccc(P(=O)(O)O)o1)n2CC(c1ccccc1)c1ccccc1 ?
70

* * *

- Tested on: Hepatocyte
- test_name: Inhibition of glucose production in rat primary hepatocytes treated for 15 to 30 mins prior to gluconeogenic substrate dihydroxyacetone addition
- Format: functional, cell-based
Measured EC50 values are reported for all entries that follow.

See these solved cases before continuing.
[
  {
    "test_smiles": "CSc1nc(N)c2nc(-c3ccc(P(=O)(O)O)o3)n(CC(C)C)c2n1",
    "EC50": "> 25 µM"
  },
  {
    "test_smiles": "Nc1ncnc2c1nc(-c1ccc(P(=O)(OCCSSCCO)OCCSSCCO)o1)n2CCc1ccccc1",
    "EC50": "> 500 µM"
  }
]

From here, focus on the item given below.
What value of EC50 has been reported for the following compound? COc1ccc(COP(=O)(OCc2ccc(OC)c(C#N)c2)c2ccc(-c3nc4c(N)ncnc4n3CCc3ccccc3)o2)cc1C#N
> 100 µM

* * *

- test_system: Fructose-1,6-bisphosphatase 1 (Homo sapiens, UniProt P09467)
- Sequence (P09467 whole entry): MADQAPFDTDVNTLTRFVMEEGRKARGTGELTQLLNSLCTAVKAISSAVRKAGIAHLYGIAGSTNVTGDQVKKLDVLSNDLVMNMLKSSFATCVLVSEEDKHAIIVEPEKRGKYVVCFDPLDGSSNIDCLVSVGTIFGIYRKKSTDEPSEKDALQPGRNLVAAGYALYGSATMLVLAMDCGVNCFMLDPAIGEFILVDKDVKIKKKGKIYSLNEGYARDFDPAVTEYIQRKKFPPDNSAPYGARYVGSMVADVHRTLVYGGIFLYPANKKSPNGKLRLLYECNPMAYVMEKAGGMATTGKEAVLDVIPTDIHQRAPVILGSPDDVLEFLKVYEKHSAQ
reported_property: IC50 (µM)
Enter your answer as a number in µM; do not include the unit.

Recorded IC50, per entry:
[
  {
    "test_smiles": "Nc1ncnc2c1nc(CCCP(=O)(O)O)n2CCc1ccccc1",
    "unit_abbrev": "µM",
    "IC50": 100
  },
  {
    "test_smiles": "CC(C)(C)CCn1c(-c2ccc(P(=O)(O)O)o2)nc2c(N)ncnc21",
    "unit_abbrev": "µM",
    "IC50": 1.6
  },
  {
    "test_smiles": "Nc1ncnc2c1nc(NCCP(=O)(O)O)n2Cc1ccccc1",
    "unit_abbrev": "µM",
    "IC50": 91
  }
]

Enter reported IC50 observed with Fructose-1,6-bisphosphatase 1 (Homo sapiens, UniProt P09467) for Nc1ncnc2c1nc(COCP(=O)(O)O)n2CCc1ccccc1
23
